Listing of recorded normalized RNA/DNA level without ligand (log10) by entry.
B1: library; a variant is named by its letters at N, in order (parent)
chain: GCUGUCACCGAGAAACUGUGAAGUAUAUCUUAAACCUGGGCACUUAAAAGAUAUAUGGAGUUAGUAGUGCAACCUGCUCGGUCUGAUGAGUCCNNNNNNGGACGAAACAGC

Variants of: B1
protocolNotes: normalized RNA/DNA level without ligand (relative to sTRSVctl = 100) (log10 (% of sTRSVctl)); HEK293T; ligand: cyclic di-GMP (c-di-GMP-II aptamer); higher = less ribozyme self-cleavage, higher mRNA level
experimentalContext: reporter: mCherry (pCS4076), ligand present: no
measurementName: normalized RNA/DNA level without ligand (log10)

# mutantCode, resultValue
rows = [
    ("CAAAAG", 1.66),
    ("CUCGUA", 1.6),
    ("AACAUU", 1.7),
    ("CCUGCA", 1.67),
    ("UAUGUU", 1.65),
    ("GUUGAC", 1.66),
    ("GAAACG", 1.61),
    ("CGCUUA", 1.27),
    ("CGCGCU", 1.7),
]
